src = patent US20240148821A1

Assign IC50 to each entry below.
target: protein-protein interaction between Kras and SOS1 (biotin-tagged human Kras loaded with GDP, His-tagged human SOS1) (Homo sapiens (Human), UniProt P01116, G12D); experiment: Protein-protein interaction inhibition between Kras and SOS1 (KrasG12D-SOS PPI) using AlphaScreen; assay type: biochemical; conditions: AlphaScreen; biotin-tagged human Kras loaded with GDP, His-tagged human SOS1; read-out: KRAS G12D-SOS PPI IC50
Bridge positions count the residues as written; N and C are the ends. Square brackets hold non-standard residues; d marks the D form. Peptide text beside a SMILES is read from it. * marks the point of attachment. hPhe(3-Cl-4-CF3) = N[C@@H](CCc1ccc(C(F)(F)F)c(Cl)c1)C(=O)O; NMeGly(cPent) = CN[C@H](C(=O)O)C1CCCC1; NMeCha = CN[C@@H](CC1CCCCC1)C(=O)O; NMeChg = CN[C@H](C(=O)O)C1CCCCC1; NMeE = CN[C@@H](CCC(=O)O)C(=O)O; NMeD = CN[C@@H](CC(=O)O)C(=O)O; NMeL = CN[C@@H](CC(C)C)C(=O)O; Azetidin(1-yl) = C1CN(*)C1; dNMeS = CN[C@H](CO)C(=O)O; Morpholide = C1CN(*)CCO1; NMeA = CN[C@@H](C)C(=O)O; Piperidide = C1CCN(*)CC1; Ac5c = NC1(C(=O)O)CCCC1; Aze = O=C(O)[C@@H]1CCN1; Sar = CNCC(=O)O
Please reply with the bare figure in nM and do not write the unit itself.

Exercise: Consider the molecule shown here: CC[C@H](C)[C@@H]1NC(=O)[C@H](CC(C)C)N(C)C(=O)C[C@@H](C(=O)N2CCCCC2)N(C)C(=O)[C@H](C2CCCCC2)N(C)C(=O)C2(CCCC2)NC(=O)[C@@H](CO)N(C)C(=O)[C@H](CCc2ccc(C(F)(F)F)c(Cl)c2)NC(=O)CN(C)C(=O)[C@H](CC2CCCCC2)N(C)C(=O)CN(C)C(=O)CN(C)C1=O [Compound 1448] ([NMeL]I[Sar][Sar][NMeCha][Sar][hPhe(3-Cl-4-CF3)][dNMeS][Ac5c][NMeChg][NMeD]-Piperidide; lactam N-11) What is its recorded IC50?
Key: 1.1

Exercise: Also check CC[C@H](C)[C@@H]1NC(=O)[C@H](CC(C)C)N(C)C(=O)C[C@@H](C(=O)N2CCOCC2)N(C)C(=O)[C@H](C2CCCC2)N(C)C(=O)C2(CCCC2)NC(=O)[C@H](CCC(=O)N2CCC2)N(C)C(=O)[C@H](CCc2ccc(C(F)(F)F)c(Cl)c2)NC(=O)CN(C)C(=O)[C@H](CC2CCCCC2)N(C)C(=O)[C@@H]2CCN2C(=O)[C@H](C)N(C)C1=O [Compound 2103] ([NMeL]I[NMeA][Aze][NMeCha][Sar][hPhe(3-Cl-4-CF3)][NMeE](Azetidin(1-yl))[Ac5c][NMeGly(cPent)][NMeD]-Morpholide; lactam N-11)
Key: 8.3

* * *

target: protein-protein interaction between Kras and SOS1 (biotin-tagged human Kras loaded with GDP, His-tagged human SOS1) (Homo sapiens (Human), UniProt P01116, G12D); assay: Protein-protein interaction inhibition between Kras and SOS1 (KrasG12D-SOS PPI) using AlphaScreen; assay type: biochemical; conditions: AlphaScreen; biotin-tagged human Kras loaded with GDP, His-tagged human SOS1; read-out: KRAS G12D-SOS PPI IC50;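 note: kras produced in E. coli, Ni-coupled donor beads and streptavidin acceptor beads, excitation 680 nm with emission detected at 520–620 nm via singlet oxygen transfer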
Numbered stars: 1 amine (or outer) side, 2 acyl side, 3 side chain; on linkers, the order of the positions; unused ones are H or OH. Bridge positions count the residues as written; N and C are the ends. Square brackets hold non-standard residues; d marks the D form. Peptide text beside a SMILES is read from it. * marks the point of attachment. hPhe(3-Cl-4-CF3) = N[C@@H](CCc1ccc(C(F)(F)F)c(Cl)c1)C(=O)O; hPhe(3-F,4-CF3) = N[C@@H](CCc1ccc(C(F)(F)F)c(F)c1)C(=O)O; X13 = O=C([C@H](CCc1ccc(OC(F)(F)F)c(Cl)c1)N[*:1])[*:2]; NMePhe(4-Me) = CN[C@@H](Cc1ccc(C)cc1)C(=O)O; NMedβ3hAla = C[C@H](CC(=O)[*:2])N(C)[*:1]; NMeGly(cPent) = CN[C@H](C(=O)O)C1CCCC1; NMeCha = CN[C@@H](CC1CCCCC1)C(=O)O; NMeI = CC[C@H](C)[C@H](NC)C(=O)O; NMeD = CN[C@@H](CC(=O)O)C(=O)O; NMeL = CN[C@@H](CC(C)C)C(=O)O; NMeS = CN[C@@H](CO)C(=O)O; Morpholide = C1CN(*)CCO1; NMeA = CN[C@@H](C)C(=O)O; Piperidide = C1CCN(*)CC1; Ac5c = NC1(C(=O)O)CCCC1; Aze = O=C(O)[C@@H]1CCN1; Cyclopropyl = C1CC1*; Sar = CNCC(=O)O
Value type: IC50
Answer format: number, then unit.

Exercise: Consider the molecule shown here: CC[C@H](C)[C@@H]1NC(=O)[C@H](CC(C)C)N(C)C(=O)C[C@@H](C)N(C)C(=O)[C@H](C2CCCC2)N(C)C(=O)C2(CCCC2)NC(=O)[C@@H]2CCCN2C(=O)[C@H](CCc2ccc(C(F)(F)F)c(F)c2)NC(=O)CN(C)C(=O)[C@H](Cc2ccc(C)cc2)N(C)C(=O)[C@@H]2CCN2C(=O)[C@H](C)N(C)C1=O [Compound 481] (cyclo([Ac5c][NMeGly(cPent)][NMedβ3hAla][NMeL]I[NMeA][Aze][NMePhe(4-Me)][Sar][hPhe(3-F,4-CF3)]P)) What is its recorded IC50?
Key: 2 nM

Exercise: Also check CC[C@H](C)[C@@H]1NC(=O)[C@H](CC(C)C)N(C)C(=O)C[C@@H](C(=O)N2CCCCC2)N(C)C(=O)[C@H](C2CCCC2)N(C)C(=O)C2(CCCC2)NC(=O)[C@@H]2CCCN2C(=O)[C@H](CCc2ccc(OC(F)(F)F)c(Cl)c2)NC(=O)CN(C)C(=O)[C@H](CC2CCCCC2)N(C)C(=O)[C@@H]2CCN2C(=O)[C@H](C)N(C)C1=O [Compound 2057] ([NMeL]I[NMeA][Aze][NMeCha][Sar][X13]P[Ac5c][NMeGly(cPent)][NMeD]-Piperidide; lactam N-11 (inferred); C-terminus assumed)
Key: 1.1 nM

Exercise: Also check CC[C@H](C)[C@@H]1NC(=O)[C@H](CC(C)C)N(C)C(=O)C[C@@H](C(=O)N2CCOCC2)N(C)C(=O)[C@H]([C@@H](C)CC)N(C)C(=O)C2(CCCC2)NC(=O)[C@@H]2CCCN2C(=O)[C@H](CCc2ccc(C(F)(F)F)c(F)c2)NC(=O)CN(C)C(=O)[C@H](Cc2ccc(C)cc2)N(C)C(=O)[C@@H]2CCN2C(=O)[C@H](C)N(C)C1=O [Compound 47] ([NMeL]I[NMeA][Aze][NMePhe(4-Me)][Sar][hPhe(3-F,4-CF3)]P[Ac5c][NMeI][NMeD]-Morpholide; lactam N-11)
Key: 1.5 nM

Exercise: Also check CC[C@H](C)[C@@H]1NC(=O)[C@H](CC(C)C)N(C)C(=O)C[C@@H](C(=O)N2CCCCC2)N(C)C(=O)[C@H](COC2CC2)N(C)C(=O)C2(CCCC2)NC(=O)[C@@H]2CCCN2C(=O)[C@H](CCc2ccc(C(F)(F)F)c(Cl)c2)NC(=O)CN(C)C(=O)[C@H](CC2CCCCC2)N(C)C(=O)[C@@H]2CCN2C(=O)[C@H](C)N(C)C1=O [Compound 1690] ([NMeL]I[NMeA][Aze][NMeCha][Sar][hPhe(3-Cl-4-CF3)]P[Ac5c][NMeS](Cyclopropyl)[NMeD]-Piperidide; lactam N-11)
Key: 97 nM
